src = paper PMC2834284

Test system: rat neonatal microglia
Test Name: Microglia LDH release
Assay type: cell-based
Condition Notes: concentration causing 50% of maximal LDH release triggered by 0.1% Triton X-100
Readout: LDH LDH50

Here's what some known entries look like.
{"Compound": "CC(C)CCn1c2ccccc2c2ccnc(C3=C[C@@]4(O)CC/C=C\\CCCCN5CC[C@@H]3[C@]3(C[C@@H]6/C=C\\CCCCN6[C@H]34)C5)c21", "Experimental Value": ">10 µM"}
{"Compound": "COC(=O)c1cc2c([nH]c3ccccc32)c(C2=C[C@@]3(O)CC/C=C\\CCCCN4CC[C@@H]2[C@]2(C[C@@H]5/C=C\\CCCCN5[C@H]23)C4)n1 [Compound 21b, Methyl manzamine A-3-carboxylate]", "Experimental Value": ">10 µM"}

Here is another compound to look at.
Ask | # LDH LDH50 lookup, item `O[C@]12C=C(c3nccc4c3[nH]c3ccccc34)[C@@H]3CCN(CCCC/C=C\CC1)C[C@@]31C[C@@H]3/C=C\CCCCN3[C@H]12`
Reply | >10 µM
